Data provenance is the Kinase Knowledgebase extract (Sharma et al. 2016).

# test_system: PIK3CG (human) (UniProt P48736)
# Sequence (P48736 whole entry, looked up): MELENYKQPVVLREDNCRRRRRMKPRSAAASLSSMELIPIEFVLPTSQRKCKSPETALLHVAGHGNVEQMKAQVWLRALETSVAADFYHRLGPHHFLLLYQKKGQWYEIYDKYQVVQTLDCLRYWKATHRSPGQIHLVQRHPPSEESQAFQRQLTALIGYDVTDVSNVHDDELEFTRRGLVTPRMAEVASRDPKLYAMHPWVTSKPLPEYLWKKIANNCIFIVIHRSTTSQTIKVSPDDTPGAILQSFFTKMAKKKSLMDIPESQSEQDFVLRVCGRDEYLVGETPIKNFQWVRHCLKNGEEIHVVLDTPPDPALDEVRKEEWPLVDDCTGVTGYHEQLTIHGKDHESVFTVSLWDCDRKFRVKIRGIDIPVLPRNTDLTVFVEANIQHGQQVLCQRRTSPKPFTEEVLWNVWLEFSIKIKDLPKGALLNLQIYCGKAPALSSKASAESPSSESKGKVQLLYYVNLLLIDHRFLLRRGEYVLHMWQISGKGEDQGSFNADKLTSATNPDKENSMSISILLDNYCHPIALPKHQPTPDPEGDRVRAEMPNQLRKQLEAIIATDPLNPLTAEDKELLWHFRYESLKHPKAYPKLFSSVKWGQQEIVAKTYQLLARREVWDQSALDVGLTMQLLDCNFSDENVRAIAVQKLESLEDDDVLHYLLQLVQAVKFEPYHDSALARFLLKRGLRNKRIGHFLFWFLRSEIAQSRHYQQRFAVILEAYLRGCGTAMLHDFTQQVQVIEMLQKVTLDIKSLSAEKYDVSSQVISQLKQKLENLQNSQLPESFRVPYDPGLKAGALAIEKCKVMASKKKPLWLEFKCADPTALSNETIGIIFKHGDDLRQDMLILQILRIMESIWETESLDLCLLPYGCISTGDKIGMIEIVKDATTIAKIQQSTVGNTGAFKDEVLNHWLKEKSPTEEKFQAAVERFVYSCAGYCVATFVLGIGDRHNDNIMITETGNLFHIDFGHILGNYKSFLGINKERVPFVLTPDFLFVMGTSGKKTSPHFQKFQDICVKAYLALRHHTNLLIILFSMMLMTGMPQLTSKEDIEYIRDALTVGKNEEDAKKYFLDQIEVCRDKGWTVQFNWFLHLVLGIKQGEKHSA
pIC50: −log10 of the molar value.
// reported pIC50 per item

Solved cases (10 shown):
compound	observed_measurement
C[C@H](NC(=O)c1c(N)nn2cccnc12)c1cc2cccc(C#N)c2c(=O)n1-c1ccccc1	6.00 to 7.00
CC(C)n1c([C@H](C)NC(=O)c2c(N)nn3cccnc23)cc2cccc(Cl)c2c1=O	6.00 to 7.00
CC#Cc1cccc2cc([C@H](C)NC(=O)c3c(N)nn4cccnc34)n(-c3ccccc3)c(=O)c12	> 7.00
C[C@H](NC(=O)c1nc(-c2cccc(NS(=O)(=O)N(C)C)c2)cnc1N)c1cc2cccc(Cl)c2c(=O)n1-c1ccccc1	> 7.00
CC(C)Oc1cc(-c2cccc3cc([C@H](C)NC(=O)c4c(N)nn5cccnc45)n(-c4ccccc4)c(=O)c23)ccn1	6.00 to 7.00
C[C@H](NC(=O)c1c(N)nn2cccnc12)c1cc2cccc(CO)c2c(=O)n1-c1ccccc1	6.00 to 7.00
C[C@H](NC(=O)c1nc(-c2cccc(S(N)(=O)=O)c2)cnc1N)c1cc2cccc(Cl)c2c(=O)n1-c1ccccc1	6.00 to 7.00
C[C@H](NC(=O)c1c(N)ncc2cccnc12)c1cc2cccc(N3CCOCC3)c2c(=O)n1-c1ccccc1	6.00 to 7.00
CC(=O)Nc1ncc(-c2cccc3cc([C@H](C)NC(=O)c4c(N)nn5cccnc45)n(-c4ccccc4)c(=O)c23)s1	6.00 to 7.00
C[C@H](NC(=O)c1c(N)nn2cccnc12)c1cc2cccc(C#CCNC(=O)C3CC(=O)CC(=O)C3)c2c(=O)n1-c1ccccc1	> 7.00

Query (compound): `C[C@H](NC(=O)c1c(N)nn2cccnc12)c1cc2cccc(CN(C)C)c2c(=O)n1-c1ccccc1` ; field requested: pIC50
≤ 5.00

Query (compound): `C[C@H](NC(=O)c1c(N)nn2cccnc12)c1cc2ccccc2c(=O)n1-c1ccccc1` ; field requested: pIC50
6.00 to 7.00

Query (compound): `COc1ncc(-c2cccc3cc([C@H](C)NC(=O)c4c(N)nn5cccnc45)n(-c4ccccc4)c(=O)c23)cn1` ; field requested: pIC50
6.00 to 7.00

Query (compound): `CC(=O)Nc1cccc(-c2cccc3cc([C@H](C)NC(=O)c4c(N)nn5cccnc45)n(-c4ccccc4)c(=O)c23)c1` ; field requested: pIC50
6.00 to 7.00

Query (compound): `C[C@H](NC(=O)c1cc(-c2cccc(NS(C)(=O)=O)c2)cnc1N)c1cc2cccc(Cl)c2c(=O)n1-c1ccccc1` ; field requested: pIC50
≤ 5.00

Query (compound): `C[C@H](NC(=O)c1c(N)nn2cccnc12)c1cc2cccc(C#CCNC(=O)C3CCCCC3)c2c(=O)n1-c1ccccc1` ; field requested: pIC50
6.00 to 7.00
